From: patent EP4682166A1

# target_or_system: T1, human NMI (N-myc Interacting protein), recombinant protein (human, UniProt Q13287 1-307, limits assumed)
# T1 construct: Gene ID: 9111; also called hNMI; antigen
# T1 sequence (looked up): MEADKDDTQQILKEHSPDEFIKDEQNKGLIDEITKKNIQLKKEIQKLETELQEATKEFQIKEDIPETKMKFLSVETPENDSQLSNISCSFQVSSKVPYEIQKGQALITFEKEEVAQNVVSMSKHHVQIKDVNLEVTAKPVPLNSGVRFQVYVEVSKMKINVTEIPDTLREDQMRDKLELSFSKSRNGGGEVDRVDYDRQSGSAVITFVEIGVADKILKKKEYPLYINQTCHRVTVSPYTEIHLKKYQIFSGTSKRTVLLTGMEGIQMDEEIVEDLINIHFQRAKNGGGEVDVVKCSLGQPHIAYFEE
# experiment_summary: ELISA, binding to hNMI
readout_name: EC50
Reply with a number, then the unit it belongs to.

Before answering, review these 2 worked examples.
• 98G10-H-1 (antibody, V domains shown, also called 98G10 W34H (VH)) VH: QEQLEESGGDLVKPEGSLTLTCTASGFSFSASYHICWVRQAPGKGLEWIACIYGGSSGSAYYASWAKGRFTISKTSSTTVTLQMTSLTAADTATYFCARAGYYNYGSAGDIYPSSFKLWGPGTLVTVSS VL: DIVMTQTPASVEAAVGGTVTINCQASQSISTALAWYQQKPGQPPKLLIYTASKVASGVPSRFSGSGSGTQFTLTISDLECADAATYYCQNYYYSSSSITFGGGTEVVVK = 0.024 µg/mL
• 98G10-H-14 (antibody, V domains shown, also called 98G10 W34D, Y112S (VH)) VH: QEQLEESGGDLVKPEGSLTLTCTASGFSFSASYDICWVRQAPGKGLEWIACIYGGSSGSAYYASWAKGRFTISKTSSTTVTLQMTSLTAADTATYFCARAGYYNYGSAGDISPSSFKLWGPGTLVTVSS VL: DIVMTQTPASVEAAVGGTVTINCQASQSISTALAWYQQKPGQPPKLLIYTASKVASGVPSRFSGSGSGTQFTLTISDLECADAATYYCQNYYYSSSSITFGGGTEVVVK = 1.49 µg/mL

Which value of EC50 has been reported for 98G10-H-7 (antibody, V domains shown, also called 98G10 W34R, Y112R (VH)) VH: QEQLEESGGDLVKPEGSLTLTCTASGFSFSASYRICWVRQAPGKGLEWIACIYGGSSGSAYYASWAKGRFTISKTSSTTVTLQMTSLTAADTATYFCARAGYYNYGSAGDIRPSSFKLWGPGTLVTVSS VL: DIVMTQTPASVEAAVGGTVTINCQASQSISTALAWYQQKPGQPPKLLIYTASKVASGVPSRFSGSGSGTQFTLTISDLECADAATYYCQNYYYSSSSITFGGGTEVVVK in the records?
1.56 µg/mL
